Sourced from patent US12509457B2

Assignment: determine reported pKi for the given compounds.
study_system: Abl (Homo sapiens, UniProt P00519)
Sequence (P00519 whole entry): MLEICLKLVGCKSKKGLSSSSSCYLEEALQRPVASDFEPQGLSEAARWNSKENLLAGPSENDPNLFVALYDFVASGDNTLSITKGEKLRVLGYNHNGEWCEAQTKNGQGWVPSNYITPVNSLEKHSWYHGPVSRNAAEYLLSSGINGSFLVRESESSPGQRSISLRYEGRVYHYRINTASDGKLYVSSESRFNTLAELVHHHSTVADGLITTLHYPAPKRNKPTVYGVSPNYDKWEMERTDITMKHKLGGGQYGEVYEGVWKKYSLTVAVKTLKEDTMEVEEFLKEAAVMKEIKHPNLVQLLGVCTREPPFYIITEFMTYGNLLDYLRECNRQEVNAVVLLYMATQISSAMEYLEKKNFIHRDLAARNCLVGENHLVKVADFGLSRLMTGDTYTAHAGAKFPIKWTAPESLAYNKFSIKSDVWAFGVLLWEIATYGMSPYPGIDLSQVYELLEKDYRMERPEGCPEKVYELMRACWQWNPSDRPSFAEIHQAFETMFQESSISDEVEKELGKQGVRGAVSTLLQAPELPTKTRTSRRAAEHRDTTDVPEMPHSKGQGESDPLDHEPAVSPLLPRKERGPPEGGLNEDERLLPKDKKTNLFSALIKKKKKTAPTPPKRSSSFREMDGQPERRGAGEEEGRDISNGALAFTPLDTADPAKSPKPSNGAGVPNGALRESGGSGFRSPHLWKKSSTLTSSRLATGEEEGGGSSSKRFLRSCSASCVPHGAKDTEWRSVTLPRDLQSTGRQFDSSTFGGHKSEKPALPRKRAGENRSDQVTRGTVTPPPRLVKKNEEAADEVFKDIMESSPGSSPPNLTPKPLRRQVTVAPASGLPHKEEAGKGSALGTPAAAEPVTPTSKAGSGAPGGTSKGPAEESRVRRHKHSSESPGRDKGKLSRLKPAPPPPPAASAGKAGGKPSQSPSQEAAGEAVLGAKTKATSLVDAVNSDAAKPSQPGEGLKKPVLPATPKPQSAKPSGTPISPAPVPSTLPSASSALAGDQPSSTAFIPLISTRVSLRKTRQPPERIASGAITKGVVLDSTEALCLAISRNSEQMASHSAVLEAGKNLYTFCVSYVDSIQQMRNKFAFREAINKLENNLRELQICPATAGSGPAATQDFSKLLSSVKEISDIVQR
protocol_summary: Abl kinase assay, IMAP fluorescence polarization
Assay type: biochemical
test_settings: 50 or 100 μM ATP; average; read-out: Abl-AVERAGE Ki
Scale for pKi: -log10 of concentration given in mol/L; no unit attached.

Record for Cc1cccc(F)c1N1Cc2cnc(N)nc2N([C@H]2CCCN(C)C2)C1=O under target or system Abl (Homo sapiens, UniProt P00519): pKi reported as 7.27

Record for Cc1cccc(F)c1N1Cc2cnc(N)nc2N([C@H]2CCCCNC2)C1=O under target or system Abl (Homo sapiens, UniProt P00519): pKi reported as 7.07

Record for Cc1cccc(F)c1N1Cc2cnc(N)nc2N([C@@H]2CCCCNC2)C1=O under target or system Abl (Homo sapiens, UniProt P00519): pKi reported as 7.70

Record for Cc1cccc(F)c1N1Cc2cnc(N)cc2N(CC2CCNCC2)C1=O under target or system Abl (Homo sapiens, UniProt P00519): pKi reported as 8.63

Record for Cc1cccc(F)c1N1Cc2cnc(N)nc2N([C@H]2CC[C@H](N)CC2)C1=O under target or system Abl (Homo sapiens, UniProt P00519): pKi reported as 7.56

Record for Cc1cccc(F)c1N1Cc2cnc(N)nc2N([C@@H]2CCNC2)C1=O under target or system Abl (Homo sapiens, UniProt P00519): pKi reported as 6.58

Record for Cc1cccc(F)c1N1Cc2cnc(N)nc2N(C2CCC(N)C2)C1=O (stereo not drawn) under target or system Abl (Homo sapiens, UniProt P00519): pKi reported as 8.37

Record for CNC1CCCC(N2C(=O)N(c3c(C)cccc3F)Cc3cnc(N)cc32)C1 (stereo not drawn) under target or system Abl (Homo sapiens, UniProt P00519): pKi reported as 7.77

Record for Cc1cccc(F)c1N1Cc2cnc(N)cc2N(C2CNC2)C1=O under target or system Abl (Homo sapiens, UniProt P00519): pKi reported as 6.73

Record for Cc1cccc(F)c1N1Cc2cnc(N)nc2N([C@@H]2CCCCN(C)C2)C1=O under target or system Abl (Homo sapiens, UniProt P00519): pKi reported as 6.84

Record for Cc1cccc(F)c1N1Cc2cnc(N)cc2N([C@@H]2CCN(C)C2)C1=O under target or system Abl (Homo sapiens, UniProt P00519): pKi reported as 6.45

Record for Cc1cccc(F)c1N1Cc2cnc(N)cc2N([C@H]2CCN(C)C2)C1=O under target or system Abl (Homo sapiens, UniProt P00519): pKi reported as 6.31

Record for Cc1cccc(F)c1N1Cc2cnc(N)cc2N([C@@H]2CCCCNC2)C1=O under target or system Abl (Homo sapiens, UniProt P00519): pKi reported as 8.21

Record for Cc1cccc(F)c1N1Cc2cnc(N)nc2N(C2CNC2)C1=O under target or system Abl (Homo sapiens, UniProt P00519): pKi reported as 7.44

Record for Cc1cccc(F)c1N1Cc2cnc(N)cc2N([C@H]2CC[C@H](N(C)C)CC2)C1=O under target or system Abl (Homo sapiens, UniProt P00519): pKi reported as 8.14

Record for Cc1cccc(F)c1N1Cc2cnc(N)cc2N([C@H]2CCCN(C)CC2)C1=O under target or system Abl (Homo sapiens, UniProt P00519): pKi reported as 7.02

Record for Cc1cccc(F)c1N1Cc2cnc(N)nc2N([C@@H]2CCCNC2)C1=O under target or system Abl (Homo sapiens, UniProt P00519): pKi reported as 7.43
